- SYSTEM_UNDER_TEST: human CD28 (human, UniProt P10747 19-220)
- TEST_PROTOCOL: cell-based or functional assay
READOUT_TYPE: TNFα (EC50 nM), DC-driven MLR

See these solved cases before continuing.
{"BINDER": "1h-99-265 (other) VH: EVQLLESGGGLVQPGGSLRLSCAASGFTFDKSNMSWARQAPGKGLEWVSWIEASGVQTFYADSVKGRFTISRDNSKNTLYLQMNSLRAEDTAVYYCAKSPFGPLYGFDYRGQGTLVTVSS", "READOUT_TYPE": "TNFα (EC50 nM), DC-driven MLR", "UNIT_TEXT": "nM", "RESULT_VALUE": 3.6}
{"BINDER": "1h-239-891 (other) VL: DIQMTQSPSSLSASVGDRVTITCRASRPIWPFLEWYQQKPGKAPKLLIYFTSRLRHGVPSRFSGSGSGTDFTLTISSLQPEDFATYYCLQNVANPATFSQGTKVEIKR", "READOUT_TYPE": "TNFα (EC50 nM), DC-driven MLR", "UNIT_TEXT": "nM", "RESULT_VALUE": 0.2}
{"BINDER": "1h-239-891(D70C) 40K branched PEG (other, 40 kDa branched PEG; engineered cysteine D70C) VL: DIQMTQSPSSLSASVGDRVTITCRASRPIWPFLEWYQQKPGKAPKLLIYFTSRLRHGVPSRFSGSGSGTCFTLTISSLQPEDFATYYCLQNVANPATFSQGTKVEIKR", "READOUT_TYPE": "TNFα (EC50 nM), DC-driven MLR", "UNIT_TEXT": "nM", "RESULT_VALUE": 1.7}
{"BINDER": "1h-239-890 (other) VL: DIQMTQSPSSLSASVGDRVTITCRASRPIWPFLEWYQQKPGKAPKLLIYFTSRLARGVPSRFSGSGSGTDFTLTISSLQPEDFATYYCLQNVANPATFSQGTKVEIKR", "READOUT_TYPE": "TNFα (EC50 nM), DC-driven MLR", "UNIT_TEXT": "nM", "RESULT_VALUE": 0.2}

[1] 1h-239-896 (other) VL: DIQMTQSPSSLSASVGDRVTITCRASRPIWPFLEWYQQKPGKAPKLLIYFTSRLARGVPSRFSGSGSGTDFTLTISSLQPEDFATYYCLQNVQMPATFSQGTKVEIKR
[2] 1h-239-891(D70C) 30K linear PEG (other, 30 kDa linear PEG; engineered cysteine D70C) VL: DIQMTQSPSSLSASVGDRVTITCRASRPIWPFLEWYQQKPGKAPKLLIYFTSRLRHGVPSRFSGSGSGTCFTLTISSLQPEDFATYYCLQNVANPATFSQGTKVEIKR
Lab note: check whether 1 or 2 shows the higher recorded TNFα (EC50 nM), DC-driven MLR. // caller expects the label of the chosen entry
2
(2: 0.6 nM, 1: 0.3 nM)
